Ref: ChEMBL document CHEMBL4385660

# selectivity ratio per record follows
- Experiment Description: Selectivity index, ratio of CC50 for cytotoxicity in MDCK cells to IC50 for antiviral activity against Influenza A virus (A/Puerto Rico/8/1934(H1N1)) infected in MDCK cells
- Assay type: toxicity, cell-based
- Experimental Conditions: dog, read-out: Ratio CC50/IC50
Observable: selectivity ratio

>>> print(df.to_string())
                                    compound  rel  recorded_measurement
 0  CCCCCc1cn(CC2=C(Cl)c3ccc(-c4cccs4)nc3CC2)nn1    =                     3
 1  CCC(CC)O[C@@H]1C=C(C(=O)O)C[C@H](N)[C@H]1NC(C)=O [OSELTAMIVIR CARBOXYLATE]    >                   500
 2  Fc1ccc(-c2cn(CC3=C(Cl)c4ccc(-c5cccs5)nc4CC3)nn2)c(F)c1    =                     1
 3  CC(C)(C)c1ccc(-c2cn(CC3=C(Cl)c4ccc(-c5cccs5)nc4CC3)nn2)cc1    =                     3
 4  FC(F)(F)Oc1ccc(-c2cn(CC3=C(Cl)c4ccc(-c5cccs5)nc4CC3)nn2)cc1    =                     5
 5  FC(F)(F)c1ccccc1-c1cn(CC2=C(Cl)c3ccc(-c4cccs4)nc3CC2)nn1    =                     2
 6  ClC1=C(Cn2cc(-c3ccsc3)nn2)CCc2nc(-c3cccs3)ccc21    =                    15
 7  CC(N)C12CC3CC(CC(C3)C1)C2 (configuration not stated)    =                     6
 8  ClC1=C(Cn2cc(-c3ccc(Cl)c(Cl)c3)nn2)CCc2nc(-c3cccs3)ccc21    =                    12
 9  FC(F)(F)c1cc(-c2cn(CC3=C(Cl)c4ccc(-c5cccs5)nc4CC3)nn2)cc(C(F)(F)F)c1    =                     1
10  CC(C)(C)c1nn(-c2cc(Cl)cc(Cl)c2OCc2cn(CC3=C(Cl)c4ccc(-c5cccs5)nc4CC3)nn2)c(=O)o1    =                     1
11  COc1ccc(-c2cn(CC3=C(Cl)c4ccc(-c5cccs5)nc4CC3)nn2)cc1    =                     2
12  ClC1=C(Cn2cc(C3CC3)nn2)CCc2nc(-c3cccs3)ccc21    =                     1
13  O=C1c2ccccc2C(=O)N1Cc1cn(CC2=C(Cl)c3ccc(-c4cccs4)nc3CC2)nn1    =                     2
14  Fc1ccc(-c2cn(CC3=C(Cl)c4ccc(-c5cccs5)nc4CC3)nn2)cc1    =                     1
15  O=[N+]([O-])c1ccc(-c2cn(CC3=C(Cl)c4ccc(-c5cccs5)nc4CC3)nn2)cc1    =                     1
16  ClC1=C(Cn2cc(-c3cc4ccccc4c4ccccc34)nn2)CCc2nc(-c3cccs3)ccc21    =                     1
